# Tested on: M14 melanoma
# assay-remarks: NCI-60 one-dose screen, 48 h (100 = growth as untreated, 0 = no growth, -100 = all killed)
# test-context: 10 µM
# Experimental: Growth inhibition of the M14 human tumor cell line is measured as a screen for anti-cancer activity. Cells are grown in 96 well plates and exposed to the test compound for 48 hours. Compounds are tested at a single concentration, which is 10^-5 M for most compounds. The reported endpoint is percent growth (GI% or GIPRCNT), where numbers from 0 - 100% represent growth inhibition, and numbers from -100% - 0 represent cell death. For example, a value of 40 represents 60% growth inhibition. […]
This is part of a sample that, as a whole, favours compounds with a hit. Of some 83,000 tested, about 20% had one in any assay.

{"molecule": "O=C(NCO)c1ccccc1", "growth, %": 106}
{"molecule": "CCCC[P+](c1ccccc1)(c1ccccc1)c1ccccc1", "growth, %": 54.9}
{"molecule": "COc1ccccc1C1OC2=Nc3cc(C)c(C)cc3NC2C1=O (centres undefined)", "growth, %": 84.2}
{"molecule": "O=C(/C(=N/O)c1ccccc1)c1ccccc1", "growth, %": 108}
